// values below are reported fold change
EXPERIMENTAL PROTOCOL: sensitizers of A549 cells to miR-34 induction, primary screen, imaging, A549 dox-inducible miR-34, nuclei and caspase counts (AID 1347080); further: test concentration not given here
CONDITION PARAMETERS: A549 miR-34 inducible, Hoechst nuclei count, 48 h; stronger effect = lower value; cell number ratio, induced over uninduced
Form: value (number only, do not type unit).

These solved cases illustrate the format of a correct answer.
Answer with reported fold change of `Nc1ccn([C@@H]2CS[C@H](CO)O2)c(=O)n1` 0.962

Determine from records and report fold change for CC1(C)C(C=C(Cl)Cl)C1C(=O)OCc1cccc(Oc2ccccc2)c1 (stereo not given) 0.928

Next:
Identify fold change associated with the molecule CCCC(=O)O[C@]1(C(=O)CO)CCC2[C@@H]3CCC4=CC(=O)CC[C@]4(C)C3[C@@H](O)C[C@@]21C (stereo not given in full) 0.953

// Input: `CNC(=O)[C@H]1O[C@@H](n2cnc3c(NCc4cccc(I)c4)nc(Cl)nc32)[C@H](O)[C@@H]1O` . Output its fold change only. 0.954

Check the records and state fold change for CO[C@@]1(NC(=O)CSCC#N)C(=O)N2C(C(=O)O)=C(CSc3nnnn3C)CSC21 (stereo not given in full) 0.923

* * *

EXPERIMENTAL PROTOCOL: fluorescence interference in NS3h assay format, artefact control for HCV NS3 helicase inhibitor project, biochemical, NIH Clinical Collection (AID 743272);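 further: HCV NS3 helicase with a Cy5 labelled single stranded DNA probe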
CONDITION PARAMETERS: fluorescence interference counterscreen, stronger effect = lower value
Active and inactive are the calls of the source. The rule behind the calls is not given here.
PROPERTY LABEL: fluorescence ratio

Guide cases for fluorescence ratio, answers given:
Give fluorescence ratio for the following molecule: `CN1[C@@H](CC(=O)c2ccccc2)CCC[C@H]1C[C@H](O)c1ccccc1` 1.03 (inactive)

Annotate the molecule `O=C1C(c2c(O)[nH]c3ccccc23)=Nc2ccccc21` with its measured fluorescence ratio. 1.13 (inactive)

Tell me its fluorescence ratio given CC(=O)OCC(=O)C12OC3(CCCC3)OC1CC1C3CCC4=CC(=O)C=CC4(C)C3(F)C(O)CC12C (stereo not given) as the entry. 0.98 (inactive)

Please supply the value of reported fluorescence ratio for the item CC1(C)SC2C(NC(=O)C(N)c3ccccc3)C(=O)N2C1C(=O)O (stereo not given) 1.03 (inactive)

--- query ---
Answer with reported fluorescence ratio of `CC(C)c1ccc2c(c1)c(SC(C)(C)C)c(CC(C)(C)C(=O)O)n2Cc1ccc(Cl)cc1` 0.96 (inactive)

* * *

EXPERIMENTAL PROTOCOL: suppressors of polyQ aggregation in yeast, 75Q-TubU reporter (AID 1593)
CONDITION PARAMETERS: Yeast 75Q polyglutamine aggregation reporter
PROPERTY LABEL: score

Sample answers from the record:
Consider the compound C#C[C@]1(O)CCC2C3CCc4cc(O)ccc4C3CC[C@@]21C (stereo not given in full) and give its recorded score. 0.67

Check the records and state score for CCCCC(=O)O[C@H]1CCC2C3CCc4cc(O)ccc4C3CC[C@@]21C (stereo not given in full) -2.02

Recall and state the measured score for CN[C@@H]1C(O)[C@@H](O[C@@H]2[C@@H](O)[C@H](O[C@H]3OC(CN)=CC[C@H]3N)[C@@H](N)C[C@H]2N)OC[C@]1(C)O (stereo not given in full) . 1.54

Give score for C#C[C@]1(O)CCC2C3CCC4=Cc5oncc5C[C@]4(C)C3CC[C@@]21C (stereo not given in full) 1.04

Dear colleague, please send me the reported score for CN1C2CCC1CC(OC(c1ccccc1)c1ccccc1)C2 (stereo not given) when you can. 1.2

***
Name the recorded score of the item OCC(S)CS (stereo not given) in your answer. -0.34

Identify the reported score for the following entry. COc1ccc(C2Sc3ccccc3N(CCN(C)C)C(=O)C2OC(C)=O)cc1 (stereo not given) 1.09

Specify score for CN(C)CCCO[C@H]1[C@@H](C(O)CO)OC2OC(C)(C)O[C@@H]21 (stereo not given in full) and stop. 1.28

Please list score recorded for the compound CC[C@H](C)C(=O)O[C@H]1CCC=C2C=C[C@H](C)C(CCC3C[C@@H](O)CC(=O)O3)[C@H]21 (stereo not given in full) 0.88

Give score for the following compound: CO[C@@]1(NC(=O)CSCC#N)C(=O)N2C(C(=O)O)=C(CSc3nnnn3C)CSC21 (stereo not given in full) 1.29
